From: patent US10335409B2

Test system: genotype 4a (ED43) stable HCV replicon in Huh-7-derived cells
experimental-protocol: Stable subgenomic HCV replicon EC50, genotype 4a (Renilla luciferase)
Assay type: cell-based, hepatitis C virus
conditions: Hepatitis C virus, 72 h, read-out: EC50 4A RLUC
The following molecules are listed with their measured pEC50 values.
When answering, recall that pEC50 equals minus log10 of the concentration in mol/L, and write that number alone.

Previously resolved entries follow.
smiles: COc1ccc2nc3c(nc2c1)O[C@H]1CN(C(=O)[C@H](C(C)(C)C)NC(=O)O[C@@H]2CCCC[C@H]2CCCCC3(F)F)[C@H](C(=O)N[C@]2(C(=O)NS(=O)(=O)C3CC3)C[C@H]2C(F)F)[C@@H]1C
assayed-target: genotype 4a (ED43) stable HCV replicon in Huh-7-derived cells
pEC50: 8.03

smiles: COc1ccc2nc3c(nc2c1)O[C@H]1CN(C(=O)[C@H](C(C)(C)C)NC(=O)O[C@@H]2C[C@H]2CCCCC3)[C@H](C(=O)N[C@]2(C(=O)NS(=O)(=O)C3(C)CC3)C[C@H]2C(F)F)[C@@H]1C
assayed-target: genotype 4a (ED43) stable HCV replicon in Huh-7-derived cells
pEC50: 8.55

smiles: COc1ccc2nc3c(nc2c1)O[C@H]1CN(C(=O)[C@H](C(C)(C)C)NC(=O)O[C@@H]2C[C@@H]4C[C@@H]4[C@H]2CCCCC3(F)F)[C@H](C(=O)N[C@]2(C(=O)NS(=O)(=O)C3CC3)C[C@H]2C(F)F)[C@@H]1C
assayed-target: genotype 4a (ED43) stable HCV replicon in Huh-7-derived cells
pEC50: 8.62

smiles: CC[C@@H]1[C@@H]2CN(C(=O)[C@H](C(C)(C)C)NC(=O)O[C@@H]3C[C@H]3CCCCC(F)(F)c3nc4ccccc4nc3O2)[C@@H]1C(=O)N[C@]1(C(=O)NS(=O)(=O)C2CC2)C[C@H]1CC
assayed-target: genotype 4a (ED43) stable HCV replicon in Huh-7-derived cells
pEC50: 7.89

Please turn your attention to the following entry.
INPUT: # query: pEC50 of entry `COc1ccc2nc3c(nc2c1)O[C@H]1CN(C(=O)[C@H](C(C)(C)C)NC(=O)O[C@H]2CC4CC(C4)[C@@H]2CCCCC3)[C@H](C(=O)N[C@]2(C(=O)NS(=O)(=O)C3CC3)C[C@H]2C(F)F)[C@@H]1C`
OUTPUT: 6.42
